test-description: amyloid nucleation score (Sup35N fusion, yeast selection) (log enrichment); library NNK2; higher = more nucleation; inactive = no reads after selection;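 also: zero at mode of non-aggregating sequences after 7 days selection at 30°C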
quantity-name: amyloid nucleation score

FCGYSAVVSRAGGCTNLSDE | inactive
TCLTFRFI | inactive
RICVRCPSYYTMWLWCLRFL | inactive
YDSDFFFHNLGDEPASVGFR | inactive

Moving on to another sequence below.
Req: Entry CDILYLNMFAIFDFFDPVKL has what amyloid nucleation score?
Resp: inactive

---

test-description: amyloid nucleation score (Sup35N fusion, yeast selection) (log enrichment); library NNK1; higher = more nucleation; inactive = no reads after selection
Tick True if amyloid nucleation score is -0.2 or greater. Tick False if amyloid nucleation score is less than -0.2.

FRSVVWRLHTFY | True

Req: amyloid nucleation score >= -0.2 for AVHICYNYRSYSI ?
Resp: True

Req: amyloid nucleation score >= -0.2 for DLIRPLSCTRVLSPNFLCS ?
Resp: False

Req: amyloid nucleation score >= -0.2 for TFIYSRECRRTSVWQPFNNR ?
Resp: False

Req: amyloid nucleation score >= -0.2 for IIRGRNVNSVRSNYYMGRFY ?
Resp: True

Req: amyloid nucleation score >= -0.2 for MADEWLCQKCGSRVT ?
Resp: False

---

test-description: amyloid nucleation score (Sup35N fusion, yeast selection) (log enrichment); library NNK3; higher = more nucleation; inactive = no reads after selection
quantity-name: amyloid nucleation score

Consider the following illustrative entries.
LPLSFSL | inactive
FGTNVPISNLIKEVLYIRYS | inactive
VYIRQLRMPAFCLTSGRALD | inactive
YPSSPGH | inactive
VYVVRANRFMRSPQLRVLFS | inactive

Req: Entry NAIGEISSVYSCTL has what amyloid nucleation score?
Resp: inactive

Req: Entry SETDFYHGFIWGIPIGALSG has what amyloid nucleation score?
Resp: inactive

Req: Entry HRGLWTKATSLYYPFEMWMV has what amyloid nucleation score?
Resp: inactive

---

As shown below, each of these substances has a reported amyloid nucleation score value.
test-description: amyloid nucleation score (Sup35N fusion, yeast selection) (log enrichment); library NNK1; higher = more nucleation; inactive = no reads after selection

Consider the following illustrative entries.
PFGDSAPKTIRIMAVLIFTV | -0.237
ALSGCERRNHLSCRSNLRDG | -0.542
SSSIVLCAVRCSRPSWFGML | 1.45
KYSEDLIRQEDVVRYMGTMS | -0.056
TSCFCI | -0.133

Moving on to another substance below.
Req: Entry RNCNTT has what amyloid nucleation score?
Resp: 0.034

---

test-description: amyloid nucleation score (Sup35N fusion, yeast selection) (log enrichment); library NNK3; higher = more nucleation; inactive = no reads after selection
quantity-name: amyloid nucleation score

Consider the following illustrative entries.
QLNGCYCQFWMMKARTTKFH | 2.86
SKDNWSRSTYTGACLR | inactive
KLSDDRKTRCNYYFMGLVVV | inactive
SLVNGAWLAVMNMSRCLWIF | inactive

Req: Entry NCKALGFNWALMGKSMSLRG has what amyloid nucleation score?
Resp: inactive

Req: Entry TNYNHCKCEIGLGHILARFT has what amyloid nucleation score?
Resp: inactive

Req: Entry FGSFQMGLWFVMNEVDQVKG has what amyloid nucleation score?
Resp: inactive

Req: Entry HGNRVFYFELHSYPVLDSAM has what amyloid nucleation score?
Resp: 0.984

Req: Entry QLRACPWYSEVFIEI has what amyloid nucleation score?
Resp: inactive

Req: Entry YLHAEYRMCKLIFKMEEFRD has what amyloid nucleation score?
Resp: 0.276

Req: Entry PHAYTVIDSSRFRPKERLCG has what amyloid nucleation score?
Resp: inactive

Req: Entry DDDLHWWKYRCVACDSLWEI has what amyloid nucleation score?
Resp: inactive

Req: Entry FVYFFCVSLTSSSPSDCDWP has what amyloid nucleation score?
Resp: 1.6

Req: Entry NYLRSVLMASGWYWILCIHF has what amyloid nucleation score?
Resp: inactive

---

As shown below, each of these sequences has a reported amyloid nucleation score value.
test-description: amyloid nucleation score (Sup35N fusion, yeast selection) (log enrichment); library NNK1; higher = more nucleation; inactive = no reads after selection
Reply with just the number.

Consider the following illustrative entries.
ILIFVNSVYRNVSSR | 5.27
HMFIFPYGAFMMERLFSGAI | 0.198
CFFASVHPLCYRGVSGVGVF | -1.28
WMNGGQRSVWMCCMGRMHPW | 7.74

Moving on to another sequence below.
Req: Entry QFSLPLCGYKRRHNGSFAEM has what amyloid nucleation score?
Resp: -1.14

---

test-description: amyloid nucleation score (Sup35N fusion, yeast selection) (log enrichment); library NNK3; higher = more nucleation; inactive = no reads after selection
quantity-name: amyloid nucleation score

Consider the following illustrative entries.
CQIEILLPLDVLY | 1.06
QQIFRDNCPVGSRFIFLSR | inactive
ISILDLSSTF | inactive
GFDMRVGDRMYRDYGMMVGA | inactive
TYPVGPGGFFWDLGCV | inactive
QTLFRTLWRFIIITAKQSSD | inactive

Req: Entry IHLVFREDITLVWVWNWIHV has what amyloid nucleation score?
Resp: inactive

Req: Entry SYDVKSSTLW has what amyloid nucleation score?
Resp: inactive

Req: Entry CFCYSLDSLLQVGNNS has what amyloid nucleation score?
Resp: inactive

---

test-description: amyloid nucleation score (Sup35N fusion, yeast selection) (log enrichment); library NNK3; higher = more nucleation; inactive = no reads after selection
quantity-name: amyloid nucleation score

Consider the following illustrative entries.
LVAWCDIPNCCANVYCNSVD | 1.85
FFGWSSRVSSACAVPVEINS | inactive
QFCVQRFYGVEKKLLTLWGF | 0.088
FVWNERWKIRLYLMSFGRGR | 2.35
AFYFNEMYRLVLMGTM | inactive

Req: Entry HSVWVYKHGLCDMWGGLTLI has what amyloid nucleation score?
Resp: inactive

Req: Entry FEYLSMYELGISVMSTAH has what amyloid nucleation score?
Resp: inactive

Req: Entry QMCVVPTTY has what amyloid nucleation score?
Resp: inactive

Req: Entry QALPSRLGSAGFDYWPPAMS has what amyloid nucleation score?
Resp: -0.039

Req: Entry CFNRITDC has what amyloid nucleation score?
Resp: inactive

Req: Entry HYRDFPSRN has what amyloid nucleation score?
Resp: inactive

Req: Entry RTKMLAVRDVHSGYHSTTQC has what amyloid nucleation score?
Resp: inactive

Req: Entry FCRQCNIVLFDQSVSL has what amyloid nucleation score?
Resp: 1.87

Req: Entry VKLMASEHLSCIGRI has what amyloid nucleation score?
Resp: inactive

Req: Entry CAFVDSISCLPLFR has what amyloid nucleation score?
Resp: inactive

Req: Entry TVHILANRPRAQYD has what amyloid nucleation score?
Resp: inactive

---

test-description: amyloid nucleation score (Sup35N fusion, yeast selection) (log enrichment); library NNK3; higher = more nucleation; inactive = no reads after selection
quantity-name: amyloid nucleation score

CRTQMPSIFDL | inactive
SGMVCVSLVG | inactive
QGMSAFYYVYGLKLWLHLLL | inactive
SFSVSKAWGWMYSIQRCCLC | inactive
FCLPICFD | inactive

Req: Entry NFFCSA has what amyloid nucleation score?
Resp: inactive

Req: Entry RYCNVFVKIVALCGYKGSWS has what amyloid nucleation score?
Resp: 2.64

Req: Entry GFFYRDDARNFVLVTNSWRL has what amyloid nucleation score?
Resp: inactive

Req: Entry QELQYLKAGSKF has what amyloid nucleation score?
Resp: inactive

Req: Entry PTDIGGNPAGPGEFLIGTGW has what amyloid nucleation score?
Resp: inactive

---

test-description: amyloid nucleation score (Sup35N fusion, yeast selection) (log enrichment); library NNK3; higher = more nucleation; inactive = no reads after selection
quantity-name: amyloid nucleation score

Consider the following illustrative entries.
LCSRRSGMVRIWIVSSARLY | inactive
NLVGTMATRYCRAHQEAREW | inactive
FLNIGYLNSRYNFLRNSVLV | inactive
NNCVITFFEFSTWGCLYLKF | inactive
AMIFAICCLNNQESVGVRRT | 2.49
GIFIKFGYR | inactive

Req: Entry RGWVPVTVIQWIMIDCQFKA has what amyloid nucleation score?
Resp: 2.78

Req: Entry IDWLKRVVEVTSVEGAYCWW has what amyloid nucleation score?
Resp: inactive

Req: Entry NFLSSNFKKALHLFPISDCN has what amyloid nucleation score?
Resp: inactive

Req: Entry LFVLSTKSLFP has what amyloid nucleation score?
Resp: 1.39

---

test-description: amyloid nucleation score (Sup35N fusion, yeast selection) (log enrichment); library NNK3; higher = more nucleation; inactive = no reads after selection
quantity-name: amyloid nucleation score

NKGSVDGYMFSTGVTFLMLE | inactive
IGISSGVTKICYGGTFKHMP | inactive
GFCLQSNLCIIGRSFWTFLI | 0.629
ASATARHTPNIY | inactive

Req: Entry GIFSRPFRAGRGRVIHNGPD has what amyloid nucleation score?
Resp: inactive

Req: Entry RMRLRVSVILGA has what amyloid nucleation score?
Resp: 0.997

Req: Entry DSMCRYV has what amyloid nucleation score?
Resp: 0.893
